assay: Inhibition of EGFR in human A-431 cells assessed as antiproliferative activity incubated for 48 hrs by MTS method
PARAMETER_MEASURED: pIC50
FYI, pIC50 means -log10 of a concentration in mol per litre.

Exercise: Could you tell me which pIC50 is on file for COc1cc2c(Nc3ccc(Br)cc3F)ncnc2cc1OCC1CCN(C(=O)Cn2cncc2[N+](=O)[O-])CC1 ?
Solution: 5.79

Taken from BindingDB's records for doi:10.1016/j.ejmech.2020.112994.
